system: Fer (mouse); assay: phosphorylation enrichment, bacterial display (enrichment ratio); higher = better substrate or ligand; peptides without Tyr show the background;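 note: 11-residue human phosphosite peptides and single-mutation variants displayed on the E. coli surface, counted by deep sequencing, each peptide's frequency after selection divided by its frequency in the unselected input library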;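 note: frequency after pTyr selection over input frequency; kinase dosed for 20-30% of maximal phosphorylation in three min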
phosphorylation enrichment of 0.6 or higher: Yes. Under 0.6: No.

Answered cases to consult:
macromolecule-sequence	assigned-label
GRTNIYNNKKD [SLC26A3_Y520_K521N]	No
ELSDGYWVVSN [TPP1_Y459_A454E]	No
FPLELYERVRI [PRKCG_Y312_M317I_YF]	Yes
KLIETYFSKNY [PLP1_Y50]	No
QGCSIYKDYYR [PLA2G2D_Y82]	Yes

Task item: Could you tell me if the measured phosphorylation enrichment of PVDGEYFTLQI [TP53_Y327_L323V] reaches 0.6 or more?
Reply: Yes

Task item: // same read-out, input: CQAHGYSCQLI [STK11_Y156_F157S]
Reply: No

Task item: // same read-out, input: FGLPRYRWLTH [TSPAN12_Y143_YF]
Reply: No

Task item: // same read-out, input: FRPPYYHRNCM [HGD_Y334]
Reply: No

Task item: // same read-out, input: IINENYDYLKV [NUP98_Y1664_G1669V]
Reply: Yes

Task item: // same read-out, input: AVHPGYGFLSE [PCCA_Y143]
Reply: No

Task item: // same read-out, input: PYRQWYESHYA [RPS8_Y113]
Reply: Yes

Task item: // same read-out, input: SGADSYEMEED [EGFR_Y316_C311S]
Reply: No

Task item: // same read-out, input: PLQKTYNHNVL [SLC4A1_Y553_Y555H]
Reply: Yes

Task item: // same read-out, input: DGMADYSDPSY [CDC5L_Y459]
Reply: No

Task item: // same read-out, input: GYGGGYGGVLT [KRT19_Y65_A60G]
Reply: No

Task item: // same read-out, input: KNGSNYVVKGN [KIT_Y823_D820G]
Reply: No

Task item: // same read-out, input: FGTAQYCCRMG [LRRK2_Y2023_I2020T_YF]
Reply: No

Task item: // same read-out, input: VGSEDYGRDLT [SPTAN1_Y1792]
Reply: Yes

Task item: // same read-out, input: KRFRIYHLAIS [BRCA2_Y3009_T3013I_YF]
Reply: No

* * *

Here the recorded phosphorylation enrichment is given for each entry.
test system: AncSZ; assay: phosphorylation enrichment, bacterial display (enrichment ratio); higher = better substrate or ligand; peptides without Tyr show the background
Write the value as a bare number.

macromolecule-sequence	phosphorylation enrichment
IGEGTYGQVYK [CDK13_Y716]	0.605
DQLVKHGVNPG [TMPO_Y127_Y127H]	0.47
LEISPYMLSGR [LRRK2_Y1718]	0.852
MVTSGYKAKTI [EFR3A_Y447]	0.413
SFNNKYGMVAQ [APOB_Y276_K273N_YF]	0.542
INMKEYCKKDY [NTN1_Y490_K489E]	0.824
EPNSRYTFKLE [USH2A_Y3745_YF]	0.808
SPGGDYAAMGA [ERBB3_Y1276_G1271S]	0.7

Task item: Name the reported phosphorylation enrichment value associated with the sequence ADYPDYKYRPR [SOX11_Y116]
Reply: 0.673

Task item: // same read-out, input: IGKAGYTDKMV [ENO1_Y236_V240M]
Reply: 0.523

Task item: // same read-out, input: GGGGSYNDFGN [HNRNPA1_Y312]
Reply: 0.599

Task item: // same read-out, input: QFPDVYAREEV [CRX_Y67_YF]
Reply: 1.06

Task item: // same read-out, input: ARGMEYLAEQK [MST1R_Y1198_G1195S]
Reply: 0.807

Task item: // same read-out, input: EVKRLYGSVCD [TC2N_Y154]
Reply: 0.866
